# Assay Details: NCI Yeast Anticancer Drug Screen. Data for the rad50 strain (AID 155);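 note: 0% = growth of vehicle-only cultures of the same strain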
# Measurement Context: S. cerevisiae rad50 strain growth inhibition; at 50.0 µM; stronger effect = higher value
Compounds without any hit were thinned out: in the full panel of roughly 79,000, 15% have a hit. Activity calls are given as the source filed them. Cut-off read from the data, not from the text of the source: active = growth inhibition above about 70%; inactive = the rest.
Measured Metric: growth inhibition

// below: answered compounds
[[record]]
compound = "CCc1cccc(OC(=O)CCl)c1"
recorded_result = "3.1% (inactive)"

[[record]]
compound = "CC1(C)CCCC2(C)[C@@H]1CC[C@]13C[C@](C)(CC[C@@H]21)[C@@H]3CO (stereo not given in full)"
recorded_result = "-17.8% (inactive)"

[[record]]
compound = "O=C1NC(Cc2c[nH]c3ccccc23)C(=O)N2CCCC12 (stereo not given)"
recorded_result = "-4.85% (inactive)"

[[record]]
compound = "C=CC(CO)N1CCCCC1 (stereo not given)"
recorded_result = "-9.15% (inactive)"

[[record]]
compound = "Cc1cc(C)c(OC(=O)c2ccc(C(=O)Oc3c(C)cc(C)cc3C)cc2)c(C)c1"
recorded_result = "13.8% (inactive)"


Ask | Fill in the blank: the reported growth inhibition of `O=S(=O)(O)c1cc(S(=O)(=O)O)c2c(N=Nc3cccc4ccccc34)c(O)ccc2c1` is ____.
Reply | 0.8% (inactive)

Ask | Fill in the blank: the reported growth inhibition of CC1CCN(CCOC(=O)c2ccc(OC(C)C)cc2)C1 (stereo not given) is ____.
Reply | 8.1% (inactive)

Ask | Fill in the blank: the reported growth inhibition of CCCCCCC1(C=O)NC(=O)NC1=O (stereo not given) is ____.
Reply | 4.2% (inactive)

Ask | Fill in the blank: the reported growth inhibition of `CC1=C(C)C(=O)OC1` is ____.
Reply | -3.55% (inactive)

Ask | Fill in the blank: the reported growth inhibition of O=C1NC(=O)C2(CCCC2=Nc2ccc(Br)cc2)C2C=CN(Cc3ccccc3)C=C12 (stereo not given) is ____.
Reply | 0.25% (inactive)

Ask | Fill in the blank: the reported growth inhibition of `CCOC(=O)C(Cc1ccccc1Cl)(Cc1ccccc1Cl)c1ccccc1` is ____.
Reply | 7.15% (inactive)

Ask | Fill in the blank: the reported growth inhibition of O=C(Nc1nc(=S)[nH][nH]1)C(=O)C(C(=O)c1ccc2ccccc2c1)C1OC(=O)c2ccccc21 (stereo not given) is ____.
Reply | 28.6% (inactive)

Ask | Fill in the blank: the reported growth inhibition of `CCOC(=O)C(=O)Cc1ccccn1` is ____.
Reply | -0.7% (inactive)

Ask | Fill in the blank: the reported growth inhibition of `C=C(C)c1nc(C#N)c(N)o1` is ____.
Reply | 33% (inactive)

Ask | Fill in the blank: the reported growth inhibition of `O=C(O)c1ccc([C@@H]2C(=O)N(O)[C@@H]3C=CC[C@@H]32)cc1` is ____.
Reply | -8.4% (inactive)

Ask | Fill in the blank: the reported growth inhibition of `NCCCc1c(-c2ccccc2)nc(N)[nH]c1=O` is ____.
Reply | -3.15% (inactive)

Ask | Fill in the blank: the reported growth inhibition of CCCC(O)CNCc1ccc2ncccc2c1 (stereo not given) is ____.
Reply | -20.4% (inactive)

Ask | Fill in the blank: the reported growth inhibition of `CC1=NCC(=O)N1` is ____.
Reply | -10.2% (inactive)

Ask | Fill in the blank: the reported growth inhibition of COc1ccccc1N1C(=O)C2C3c4ccccc4C(OC(C)=O)(c4ccccc43)C2C1=O (stereo not given) is ____.
Reply | -19.8% (inactive)

Ask | Fill in the blank: the reported growth inhibition of `C=C(Cl)CSc1ncnc2nc[nH]c12` is ____.
Reply | 34.5% (inactive)

Ask | Fill in the blank: the reported growth inhibition of `O=C(CCCC(=O)NNC(=O)Nc1cccc(Cl)c1)NNC(=O)Nc1cccc(Cl)c1` is ____.
Reply | -13.2% (inactive)

Ask | Fill in the blank: the reported growth inhibition of `CN(CC(N)=O)C(=O)c1cnc2ccccc2c1` is ____.
Reply | 9.65% (inactive)

Ask | Fill in the blank: the reported growth inhibition of `O=C(N/N=C\c1cccnc1)Nc1ccc(N=Nc2ccccc2)cc1` is ____.
Reply | 12% (inactive)

Ask | Fill in the blank: the reported growth inhibition of `c1ccc(-c2cnn3c(-c4ccccc4)cnnc23)cc1` is ____.
Reply | -1.65% (inactive)

Ask | Fill in the blank: the reported growth inhibition of `c1cc(C2CCCCC2)ccc1C1CCCCC1` is ____.
Reply | -7.4% (inactive)

Ask | Fill in the blank: the reported growth inhibition of O=C(c1ccccc1)C(c1ccccc1)S(=O)(=O)N1CCOCC1 (stereo not given) is ____.
Reply | 1.3% (inactive)

Ask | Fill in the blank: the reported growth inhibition of COc1ccc(C2C3=C(COC3=O)OC(C)(C)Oc3cc4c(cc32)OCO4)cc1 (stereo not given) is ____.
Reply | -3% (inactive)

Ask | Fill in the blank: the reported growth inhibition of `CCOC(=O)c1ccc(N=C(N)N)cc1` is ____.
Reply | 23% (inactive)

---

growth inhibition reference
# Assay Details: NCI Yeast Anticancer Drug Screen. Data for the mec2-1 strain (AID 157)
# Measurement Context: S. cerevisiae mec2-1 strain, at 50.0 µM, stronger effect = higher value
The panel holds about 79,000 compounds, 15% with a hit somewhere; the sample as a whole holds those more often.
Give just the number in %; leave the unit off.

// below: answered molecules
[[record]]
molecule = "CCN=C(NCC)N(CC)CC"
recorded_result = -5.75

[[record]]
molecule = "c1ccc(C2=C(c3ccccn3)N=c3ccccc3=c3ccccc3=N2)nc1"
recorded_result = 14.2

[[record]]
molecule = "CCCc1cc(=O)n(CCCc2ccccc2)c(=O)[nH]1"
recorded_result = 1.25

[[record]]
molecule = "O=C(O)[C@H](c1ccccc1)[C@@H](C(=O)O)c1ccccc1"
recorded_result = -5.75


Ask | Fill in the blank: the reported growth inhibition of `CCCCn1cnc2c(SSc3ncnc4c3ncn4CCCC)ncnc21` is ____.
Reply | -11.3

Ask | Fill in the blank: the reported growth inhibition of `Cc1ccc(N=Nc2ccc(C)cc2NC(=O)c2ccc(Cl)cc2Cl)cc1` is ____.
Reply | -9.7

Ask | Fill in the blank: the reported growth inhibition of O=C1C2=Nc3ccccc3C(O)N2c2ccccc21 (centres undefined) is ____.
Reply | 22.4

Ask | Fill in the blank: the reported growth inhibition of CC(C)(C)NC(=S)NC1CC2CC1C1Cc3ccccc3C21 (centres undefined) is ____.
Reply | -1.45

---

# Assay Details: NCI Yeast Anticancer Drug Screen. Data for the sgs1 mgt1 strain (AID 161);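 note: 0% = growth of cultures given vehicle only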
# Measurement Context: S. cerevisiae sgs1 mgt1 strain, at 50.0 µM, stronger effect = higher value
This is part of a sample that, as a whole, favours compounds with a hit. Of some 79,000 tested, about 15% had one in any assay.
growth inhibition reference
Give just the number in %; leave the unit off.

// below: answered compounds
[[record]]
compound = "O=C(O)CCCN1CCCCC1"
measured_metric = "growth inhibition"
recorded_result = -30.2

[[record]]
compound = "S=c1ncnc2cc3[nH][nH]cc3cc12"
measured_metric = "growth inhibition"
recorded_result = -5.35

[[record]]
compound = "Clc1ccc2cc3ccccc3cc2c1"
measured_metric = "growth inhibition"
recorded_result = -3.95

[[record]]
compound = "CC(=O)/C=C/CCC(=O)/C=C/C(=O)OC(CCC(=O)/C=C/C(=O)O)CC(C)=O (stereo not given)"
measured_metric = "growth inhibition"
recorded_result = -18.4

[[record]]
compound = "COc1cc(O)c(C(=O)C2Cc3ccccc32)c(OC)c1 (stereo not given)"
measured_metric = "growth inhibition"
recorded_result = 24.1

[[record]]
compound = "CCOC(=O)C1CCC(=O)N1Cc1c[nH]c2ccccc12 (stereo not given)"
measured_metric = "growth inhibition"
recorded_result = -5.1


Ask | Fill in the blank: the reported growth inhibition of `CSc1nc2ccc(NCn3c(=O)sc4cc(Br)ccc43)cc2s1` is ____.
Reply | 4.6

Ask | Fill in the blank: the reported growth inhibition of `O=C(CN1C(=O)c2cccc3c(Br)ccc(c23)C1=O)c1ccc(F)cc1` is ____.
Reply | 7.6

---

# Assay Details: NCI Yeast Anticancer Drug Screen. Data for the cln2 rad14 strain (AID 165);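 note: 0% = growth equal to vehicle treated cultures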
# Measurement Context: S. cerevisiae cln2 rad14 strain, at 50.0 µM, stronger effect = higher value
This is part of a sample that, as a whole, favours compounds with a hit. Of some 79,000 tested, about 15% had one in any assay.
growth inhibition reference
Give just the number in %; leave the unit off.

[[record]]
molecule = "CCOC(=O)CN"
measured_metric = "growth inhibition"
recorded_result = -0.4

[[record]]
molecule = "COc1cc([C@@H]2c3cc4c(cc3[C@](C)(O)[C@H]3COC(=O)[C@H]23)OCO4)cc(OC)c1OC"
measured_metric = "growth inhibition"
recorded_result = 22.8

[[record]]
molecule = "COc1ccc(-c2cc(C(=O)Nc3cc(Cl)cc(Cl)c3)c3ccccc3n2)cc1"
measured_metric = "growth inhibition"
recorded_result = -0.85

[[record]]
molecule = "COC1=CC(=O)C2CC=C(C)CC2(C)C1=O (stereo unspecified)"
measured_metric = "growth inhibition"
recorded_result = 18

[[record]]
molecule = "NC(=O)CCC1CCCCN1 (stereo unspecified)"
measured_metric = "growth inhibition"
recorded_result = 5.7


Ask | Fill in the blank: the reported growth inhibition of `CN(C)c1ccc(/C=N/NC(=O)NN)cc1` is ____.
Reply | -2.85

Ask | Fill in the blank: the reported growth inhibition of OC1COCOC1C(O)C1OCOCC1O (stereo unspecified) is ____.
Reply | 4.3

Ask | Fill in the blank: the reported growth inhibition of `CSCNC(=O)Nc1ccccc1` is ____.
Reply | 0.25

Ask | Fill in the blank: the reported growth inhibition of CC1(C)C=C(C(Br)c2ccc(Cl)cc2)C(=O)c2ccccc21 (stereo unspecified) is ____.
Reply | 94.7
